The origin of these recorded values is ChEMBL document CHEMBL1201862.

Test system: DU-145
Assay: NCI tumour cell line growth inhibition, 48 h
The source made the active and inactive calls. Rule as the data show it: active = GI50 up to about 1.1 µM and inactive = higher.
The entries below are paired with their reported GI50.

{"columns": ["COMPOUND", "GI50"],
 "data": [
  ["O=[N+]([O-])/C=C/c1ccc2ccccc2c1", "4.07 µM (inactive)"],
  ["CC(=O)OC1CC[C@@]2(C)C(=CC[C@@H]3[C@@H]2CC[C@]2(C)Nc4c(cnn4-c4ccc(F)cc4)C[C@@H]32)C1 (stereo partly specified)", "45.5 µM (inactive)"],
  ["CCN(CC)Cc1cc(Nc2ccnc3ccc4c(nnn4C)c23)ccc1O", "13.3 µM (inactive)"],
  ["CCOC(=O)C(Cc1ccccc1)(Cc1ccc(O)cn1)NC(=O)c1ccccc1 (stereo unspecified)", "27.5 µM (inactive)"],
  ["O=C1CCC(=O)N1CNc1ccc2c(c1)Sc1ccccc1O2", "32.5 µM (inactive)"],
  ["c1ccc(CSC2(SCc3ccccc3)CCCCC2)cc1", "> 10 µM (inactive)"],
  ["CCC1C(C#N)=C(N)OC2=C1C(=O)CC(C)(C)C2 (stereo unspecified)", "> 100 µM (inactive)"],
  ["O=C1C(Cl)=C(N2CCN(c3ccccn3)CC2)C(=O)c2ncccc21", "11.8 µM (inactive)"],
  ["O=C(O)CCc1nc2ccccc2[nH]1", "> 100 µM (inactive)"],
  ["COc1ccc([N+](=O)[O-])c2c(NCCCN(C)C)c(C)c(C)nc12", "> 100 µM (inactive)"],
  ["CCCCC1c2c([nH]c3ccccc23)C2C(=O)N(c3ccc(OC)cc3)C(=O)C2C1CCC (stereo unspecified)", "5.12 µM (inactive)"]
]}
